Data origin: patent US20240208955A1

- Target desc: human RXFP3 (Homo sapiens)
- Measurement protocol: RXFP3 cAMP accumulation assay (inhibition of relaxin-3 activity) in stable CHO human RXFP3 cells
Readout: IC50 (nM)
Numbers only, in nM.

These solved cases illustrate the format of a correct answer.
Cc1ccc(-c2noc(-c3ccc(NC(=O)C4CC(=O)N(Cc5ccccn5)C4)cc3)n2)cc1 (stereo not drawn) :: 4810
O=C(Nc1ccc(-c2nc(-c3ccc(Cl)cc3)no2)cc1)C1CC(=O)N(Cc2cccnc2)C1 (stereo not drawn) :: 1250
O=C(Nc1ccc(-c2nc(-c3ccc(C(F)(F)F)cc3)no2)cc1)C1CC(=O)N(Cc2cccnc2)C1 (stereo not drawn) :: 2500
Cc1ccc(-c2noc(-c3ccc(NC(=O)C4CC(=O)N(C)C4)cc3)n2)cc1 (stereo not drawn) :: 2720

Return reported IC50 values for all items listed beneath this line.
1. O=C(Nc1ccc(-c2nc(-c3ccc(Cl)cc3)no2)cc1)C1CC(=O)N(Cc2ccco2)C1 (stereo not drawn)
2. O=C(Nc1ccc(-c2nc(-c3cccc(F)c3)no2)cc1)C1CC(=O)N(Cc2cccnc2)C1 (stereo not drawn)
3. O=C(Nc1ccc(-c2nc(-c3ccccc3)no2)cc1)C1CC(=O)N(Cc2ccccc2)C1 (stereo not drawn)

A:
[2880, 1340, 7530]

---

- Target desc: human RXFP3 (Homo sapiens)
- Sequence (Q9NSD7 1-469): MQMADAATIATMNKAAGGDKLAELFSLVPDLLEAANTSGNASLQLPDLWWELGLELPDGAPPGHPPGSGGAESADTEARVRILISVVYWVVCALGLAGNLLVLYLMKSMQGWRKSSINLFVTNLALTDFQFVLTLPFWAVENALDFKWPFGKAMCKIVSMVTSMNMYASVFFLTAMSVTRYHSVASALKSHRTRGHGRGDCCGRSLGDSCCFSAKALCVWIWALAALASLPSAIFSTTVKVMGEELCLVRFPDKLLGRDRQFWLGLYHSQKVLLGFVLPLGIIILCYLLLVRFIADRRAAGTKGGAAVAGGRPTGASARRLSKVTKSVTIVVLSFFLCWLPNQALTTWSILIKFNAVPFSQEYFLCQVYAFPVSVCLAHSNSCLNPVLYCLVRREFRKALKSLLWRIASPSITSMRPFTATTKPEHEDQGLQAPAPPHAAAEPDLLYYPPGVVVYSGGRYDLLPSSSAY
- Measurement protocol: RXFP3 cAMP accumulation assay (inhibition of relaxin-3 activity) in stable CHO human RXFP3 cells
Readout: pIC50
One number for each entry, as −log10 of the molar value.

O=C(Nc1ccc(-c2nc(-c3ccc(C(F)(F)F)cc3)no2)cc1)C1CC(=O)N(Cc2ccco2)C1 (centres unmarked) :: 5.17

Hey, can you go through the list below and give me pIC50 for every item?
1. Cc1ccc(-c2noc(-c3ccc(NC(=O)C4CC(=O)N(Cc5cccnc5)C4)cc3)n2)cc1 (centres unmarked)
2. O=C(Nc1ccc(-c2nc(-c3ccccc3)no2)cc1)C1CC(=O)N(Cc2cccnc2)C1 (centres unmarked)
3. Cc1cccc(-c2noc(-c3ccc(NC(=O)C4CC(=O)N(Cc5cccnc5)C4)cc3)n2)c1 (centres unmarked)
4. O=C(Nc1ccc(-c2nc(-c3ccc(F)cc3)no2)cc1)C1CC(=O)N(Cc2cccnc2)C1 (centres unmarked)
5. Cc1ccc(-c2noc(-c3ccc(NC(=O)CCNCc4ccccc4)cc3)n2)cc1
6. O=C(Nc1ccc(-c2nc(-c3ccc(Br)cc3)no2)cc1)C1CC(=O)N(Cc2cccnc2)C1 (centres unmarked)

A:
[5.63, 5.18, 5.27, 5.72, 5.25, 5.54]
